pIC50: −log10 of the molar value.
Record set of pIC50 for target or system human full length PDE3A (Homo sapiens (Human), UniProt Q14432).
RECORDED METRIC: pIC50

COMPOUND | pIC50
Cc1ccc(-c2ccc(C3=NNC(=O)OC3)cc2F)cc1 [Example 88] | 6.96
O=C1NN=C(c2ccc(Br)c(C(F)F)c2)CO1 [Intermediate 77] | 6.82
O=C1NN=C(c2ccc(-c3cc4ccccc4s3)c(C(F)(F)F)c2)CO1 [Example 148] | 6.72
CCCNc1ccc(C2=NNC(=O)OC2)cc1C(F)(F)F [Example 69] | 7.51
CCNc1ccc(C2=NNC(=O)OC2)cc1C(F)(F)F [Example 67] | 7.33

[P] O=C1NN=C(c2ccc(C3=CCCOC3)c(C(F)(F)F)c2)CO1 [Example 142]
[Q] O=C1NN=C(c2ccc(-c3cccnc3)c(C(F)(F)F)c2)CO1 [Example 33]
[R] O=C1NN=C(c2ccc(-c3ccc(Cl)cc3)c(C(F)(F)F)c2)CO1 [Example 31]
[S] O=C1NN=C(c2ccc(Br)c(C(F)(F)F)c2)CO1 [Intermediate 78]
Returns the items ordered by pIC50, from maximum to minimum. Write the labels, ordered according to the request. P, Q, S, R
(P: 7.60, Q: 7.19, S: 6.85, R: 6.51)

[A] C[C@@H]1OC(=O)NN=C1c1cc(F)c(N2CCOCC2)c(F)c1 [Example 25-2]
[B] O=C1NN=C(c2ccc(-c3cnsc3)c(C(F)(F)F)c2)CO1 [Example 49]
[C] O=C1NN=C(c2ccc(-c3cnn(C(F)F)c3)c(C(F)(F)F)c2)CO1 [Example 146]
[D] C[C@@H](O)CCNc1ccc(C2=NNC(=O)OC2)cc1C(F)(F)F [Example 217]
[E] Cc1cc(F)ccc1-c1ccc(C2=NNC(=O)OC2)cc1C [Example 9]
Returns the items ordered by pIC50, from maximum to minimum. Write the labels, ordered according to the request. A, C, D, B, E
(A: 7.77, C: 7.40, D: 7.19, B: 6.64, E: 6.36)

[P] C[C@@H]1OC(=O)NN=C1c1ccc(-c2ccc(O)cc2)c(C(F)(F)F)c1 [Example 174]
[Q] Cn1c(C#N)ccc1-c1ccc(C2=NNC(=O)OC2)cc1C(F)(F)F [Example 50]
[R] O=C1NN=C(c2ccc(N3CCC(O)CC3)c(C(F)(F)F)c2)CO1 [Example 227]
Returns the items ordered by pIC50, from maximum to minimum. Write the labels, ordered according to the request. R, P, Q

---

- MEASUREMENT TARGET: human full length PDE3B (Homo sapiens (Human), UniProt Q13370)
- Sequence (Q13370 whole entry): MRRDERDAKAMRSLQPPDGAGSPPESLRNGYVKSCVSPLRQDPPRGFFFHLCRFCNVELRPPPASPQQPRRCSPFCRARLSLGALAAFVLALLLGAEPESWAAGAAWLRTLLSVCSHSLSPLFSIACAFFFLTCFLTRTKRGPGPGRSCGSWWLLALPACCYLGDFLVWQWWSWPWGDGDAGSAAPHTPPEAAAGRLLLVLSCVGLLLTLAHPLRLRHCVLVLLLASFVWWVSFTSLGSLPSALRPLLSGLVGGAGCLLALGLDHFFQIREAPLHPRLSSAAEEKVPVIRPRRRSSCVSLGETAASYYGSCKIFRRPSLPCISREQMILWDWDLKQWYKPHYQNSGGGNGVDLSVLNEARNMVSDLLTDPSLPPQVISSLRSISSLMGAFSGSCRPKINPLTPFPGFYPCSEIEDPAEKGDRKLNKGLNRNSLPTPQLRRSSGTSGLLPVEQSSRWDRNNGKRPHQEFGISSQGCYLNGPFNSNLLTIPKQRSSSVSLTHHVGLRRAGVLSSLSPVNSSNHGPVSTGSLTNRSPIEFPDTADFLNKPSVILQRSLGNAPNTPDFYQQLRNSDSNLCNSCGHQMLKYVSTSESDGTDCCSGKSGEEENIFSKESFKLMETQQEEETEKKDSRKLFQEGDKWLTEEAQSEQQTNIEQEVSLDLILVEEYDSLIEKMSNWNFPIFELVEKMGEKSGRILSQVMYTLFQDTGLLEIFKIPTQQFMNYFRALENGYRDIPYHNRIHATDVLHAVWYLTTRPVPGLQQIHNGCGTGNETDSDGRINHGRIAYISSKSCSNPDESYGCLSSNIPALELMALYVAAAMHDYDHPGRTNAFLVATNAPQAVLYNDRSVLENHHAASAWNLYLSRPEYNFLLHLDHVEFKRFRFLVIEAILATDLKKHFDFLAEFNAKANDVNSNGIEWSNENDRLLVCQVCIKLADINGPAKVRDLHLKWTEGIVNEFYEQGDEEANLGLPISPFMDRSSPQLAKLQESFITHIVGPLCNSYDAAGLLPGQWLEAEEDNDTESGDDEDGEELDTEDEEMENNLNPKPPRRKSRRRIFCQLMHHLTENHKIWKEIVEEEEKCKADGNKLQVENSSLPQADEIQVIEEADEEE
pIC50: −log10 of the molar value.
RECORDED METRIC: pIC50

COMPOUND | RECORDED METRIC | OBSERVED
Cn1ncc2ccc(-c3ccc(C4=NNC(=O)OC4)cc3C(F)(F)F)cc21 [Example 75] | pIC50 | 7.11
O=C1NN=C(c2ccc(-c3ccccc3F)c(F)c2)CO1 [Example 114] | pIC50 | 7.00
Nc1cc(-c2ccc(C3=NNC(=O)OC3)cc2C(F)(F)F)ccc1F [Example 56] | pIC50 | 7.10

[1] CCn1cc(-c2ccc(C3=NNC(=O)OC3)cc2C(F)(F)F)cn1 [Example 131]
[2] N#Cc1cc(C2=NNC(=O)OC2)cc(Cl)c1N1CCOCC1 [Example 23]
Please indicate which has the smaller reported pIC50: 1 , or 2 . // caller expects the label of the chosen entry 2
(2: 6.57, 1: 7.38)

[a] Cc1nc2cc(-c3ccc(C4=NNC(=O)OC4)cc3C(F)(F)F)ccc2[nH]1 [Example 326]
[b] C[C@@H]1OC(=O)NN=C1c1ccc(-n2cnc(C(F)(F)F)c2)c(C(F)(F)F)c1 [Example 266]
Which one would you say has the larger pIC50 value: a , or b ? // caller expects the label of the chosen entry a

[I] CCCCCNc1ccc(C2=NNC(=O)OC2)cc1C(F)(F)F [Example 74]
[II] C[C@@H]1OC(=O)NN=C1c1ccc(N2CCOCC2)c(C(F)(F)F)c1 [Example 120]
Which one would you say has the larger pIC50 value: I , or II ? // caller expects the label of the chosen entry II
(II: 8.40, I: 7.00)

[a] C[C@@H]1OC(=O)NN=C1c1ccc(-c2ccc3cc[nH]c3c2)c(C(F)(F)F)c1 [Example 185]
[b] O=C1NN=C(c2ccc(-c3cc(F)c(F)cc3F)c(F)c2)CO1 [Example 98]
[c] O=C1NN=C(c2ccc(C3=CCCC3)c(C(F)(F)F)c2)CO1 [Example 150]
Ascending by pIC50, please. Write the labels, ordered according to the request. c, b, a
(c: 6.60, b: 6.92, a: 7.32)

[A] O=C1NN=C(c2ccc(NCC(O)C(F)(F)F)c(C(F)(F)F)c2)CO1 (racemic) [Example 204]
[B] O=C1NN=C(c2ccc(-c3ccccc3C(F)F)c(F)c2)CO1 [Example 161]
Which one would you say has the larger pIC50 value: A , or B ? // caller expects the label of the chosen entry B
(B: 7.31, A: 6.96)

Numbers sourced from patent US11427553B2.
